Experiment: JC-1 mitochondrial signal, unstimulated myeloma cells – cell-based, JC-1 fluorescence, RPMI8226, 24 h, 100 nL compound, profiling panel (AID 1169); note: test concentration not given here
Conditions: JC-1 mitochondrial potential fluorescence, higher = more signal
recordedEndpoint: z-score
Output spec: single numeric token, no unit.

Prompt line: Tell me its z-score given [N-]=[N+]=NCc1ccccc1[C@H]1OC(c2ccc(OCCCO)cc2)=N[C@@]1(Cc1ccccc1)C(=O)NCC(O)CO (stereo not given in full) as the entry.
Response line: -0.399

Prompt line: Please look at this molecule and report its z-score: CCCC[C@H]1C[C@@H]1[C@@H]1N(P(=O)(c2ccccc2)c2ccccc2)[C@](CO)(c2ccccc2)CC12CC2
Response line: -0.868

Prompt line: Give a short answer stating reported z-score for COc1cc(CO)cc(I)c1O[C@H]1C=C(C(=O)NCCO)C[C@@H](N(CCc2cccc(F)c2)C(=O)CCC2CCCC2)[C@@H]1O .
Response line: -1.2

More entries:
Prompt line: In one line, give reported z-score of the entry COC(=O)[C@@]1(Cc2ccc(F)cc2)[C@H]2c3cc(C(=O)N(C)C)n(CCCNc4ccc(C(F)(F)F)cc4Cl)c3C[C@H]2CN1C(=O)c1ccccc1 .
Response line: -0.777

Prompt line: Please give the documented z-score of CC(C)C(=C=CC[C@H](O)c1ccccc1OCCO)CCO
Response line: -0.424

Prompt line: Tell me measured z-score for C[N+](C)(C)CCCC[C@@H]1NC(=O)[C@H]2C[C@@H](C(=O)O)[C@@H](c3cccc(OCCO)c3)N2C1=O please.
Response line: -0.741

Prompt line: Look up and report measured z-score for this entry: COCCCNC(=O)[C@@]1(Sc2ccc(C)cc2)CC(=O)N(Cc2ccccc2)[C@@H]1c1ccc(CO)cc1
Response line: 0.216

Prompt line: For the molecule C=C(C(=O)CC[C@H](OC(=O)c1cccnc1)c1ccccc1OCCO)C(C)C , report z-score.
Response line: -0.742

Prompt line: Provide one value: measured z-score of C=C(CCCC)C(=O)CC[C@@H](OC(=O)c1ccccc1-c1ccccc1C(=O)O)c1ccc(CO)o1
Response line: 0.479

Prompt line: # return recorded z-score for entry C=CCN1C(=O)[C@@]2(O[C@@H](CCO)[C@H]([Si](C)(C)c3ccc(OC)cc3)[C@H]2C)c2cc(NC(C)=O)ccc21
Response line: -0.484

Prompt line: Indicate its recorded z-score; the molecule in question is C=C(COC)C(=O)CC[C@@H](OC(=O)c1ccccc1-c1ccccc1C(=O)O)c1ccc(CO)o1
Response line: -0.323

Prompt line: Give recorded z-score. CCOC(=O)C[C@H]1[C@H](OC(=O)c2cc3ccccc3oc2=O)[C@@H](NC(=O)c2ccc3ccccc3c2)c2cc(OCCCO)ccc2N1C(=O)c1ccccc1
Response line: 0.416

Prompt line: Supply reported z-score belonging to this molecule: CC(C)NC(=O)[C@@]1(c2ccc([N+](=O)[O-])cc2)CC(=O)N(C(C)C)[C@@H]1c1ccc(CO)cc1
Response line: -1.03
